assayDetails: Plasma pharmacokinetics in male CD-1 mice (1 mg/kg i.v. or 3 mg/kg p.o.)
conditionContext: CD-1, mouse, in vivo, iv, 1 mg/kg
measure: Tmax (min)

| compound | readingUnit | Tmax |
| --- | --- | --- |
| CCn1c(=S)c2c(nc(/C=C/c3ccc(OC)c(OC)c3)n2C)n(CC)c1=O [Formula III] | min | 15 |

P. CCn1c(=O)c2c(nc(/C=C/c3ccc(OC)c(OC)c3)n2C)n(CC)c1=O [Istradefylline, reference compound]
Q. CCn1c(=O)c2c(nc(/C=C/c3ccc(OC(F)F)c(OC(F)F)c3)n2C)n(CC)c1=O [Formula I]
Task: Which value of Tmax is greater, the one for P or the one for Q ? Mark your answer with the label of the selected entry.
Output: P
(P: 15 min, Q: 5 min)

----------
assayDetails: Plasma pharmacokinetics in male CD-1 mice (1 mg/kg i.v. or 3 mg/kg p.o.)
conditionContext: CD-1, mouse, in vivo, po, 3 mg/kg
measure: AUC(0-t) (ng·h/mL)

| compound | AUC(0-t), ng·h/mL |
| --- | --- |
| CCn1c(=S)c2c(nc(/C=C/c3ccc(OC)c(OC)c3)n2C)n(CC)c1=O [Formula III] | 988 |

P. CCn1c(=O)c2c(nc(/C=C/c3ccc(OC(F)F)c(OC(F)F)c3)n2C)n(CC)c1=O [Formula I]
Q. CCn1c(=O)c2c(nc(/C=C/c3ccc(OC)c(OC)c3)n2C)n(CC)c1=O [Istradefylline, reference compound]
Task: // task: argmin of AUC(0-t) over [ P , Q ] Output the label that corresponds to your choice.
Output: Q
(Q: 1340 ng·h/mL, P: 4650 ng·h/mL)

----------
assayDetails: Brain pharmacokinetics and brain/plasma ratio in male CD-1 mice (1 mg/kg i.v.)
Format: in vivo
conditionContext: male, CD-1, mouse, brain, intravenous, 1 mg/kg, 1 mg/kg bolus i.v., 1 h; read-out: Brain concentration, Mean
measure: concentration at 1 h (ng/g)

| compound | readingUnit | concentration at 1 h |
| --- | --- | --- |
| CCn1c(=O)c2c(nc(/C=C/c3ccc(OC(F)F)c(OC(F)F)c3)n2C)n(CC)c1=O [Formula I] | ng/g | 254 |

1. CCn1c(=O)c2c(nc(/C=C/c3ccc(OC)c(OC)c3)n2C)n(CC)c1=O [Istradefylline, reference compound]
2. CCn1c(=S)c2c(nc(/C=C/c3ccc(OC)c(OC)c3)n2C)n(CC)c1=O [Formula III]
Task: Would you mind telling me which has the lower recorded concentration at 1 h between 1 and 2 ? State the label of the item chosen.
Output: 1

----------
assayDetails: Brain pharmacokinetics and brain/plasma ratio in male CD-1 mice (1 mg/kg i.v.)
Format: in vivo
conditionContext: male, CD-1, mouse, brain, intravenous, 1 mg/kg, 1 mg/kg bolus i.v., 6 h, individual animals 1-3; read-out: Brain concentration
measure: concentration at 6 h (ng/g)

| compound | concentration at 6 h (ng/g) |
| --- | --- |
| CCn1c(=O)c2c(nc(/C=C/c3ccc(OC(F)F)c(OC(F)F)c3)n2C)n(CC)c1=O [Formula I] | 91.2 |

A. CCn1c(=O)c2c(nc(/C=C/c3ccc(OC)c(OC)c3)n2C)n(CC)c1=O [Istradefylline, reference compound]
B. CCn1c(=S)c2c(nc(/C=C/c3ccc(OC)c(OC)c3)n2C)n(CC)c1=O [Formula III]
Task: Exercise: compare A and B ; which one has the greater concentration at 6 h? Label of pick, please.
Output: B
